system-tested: human RXFP1 (Homo sapiens)
Sequence (Q9HBX9 whole entry): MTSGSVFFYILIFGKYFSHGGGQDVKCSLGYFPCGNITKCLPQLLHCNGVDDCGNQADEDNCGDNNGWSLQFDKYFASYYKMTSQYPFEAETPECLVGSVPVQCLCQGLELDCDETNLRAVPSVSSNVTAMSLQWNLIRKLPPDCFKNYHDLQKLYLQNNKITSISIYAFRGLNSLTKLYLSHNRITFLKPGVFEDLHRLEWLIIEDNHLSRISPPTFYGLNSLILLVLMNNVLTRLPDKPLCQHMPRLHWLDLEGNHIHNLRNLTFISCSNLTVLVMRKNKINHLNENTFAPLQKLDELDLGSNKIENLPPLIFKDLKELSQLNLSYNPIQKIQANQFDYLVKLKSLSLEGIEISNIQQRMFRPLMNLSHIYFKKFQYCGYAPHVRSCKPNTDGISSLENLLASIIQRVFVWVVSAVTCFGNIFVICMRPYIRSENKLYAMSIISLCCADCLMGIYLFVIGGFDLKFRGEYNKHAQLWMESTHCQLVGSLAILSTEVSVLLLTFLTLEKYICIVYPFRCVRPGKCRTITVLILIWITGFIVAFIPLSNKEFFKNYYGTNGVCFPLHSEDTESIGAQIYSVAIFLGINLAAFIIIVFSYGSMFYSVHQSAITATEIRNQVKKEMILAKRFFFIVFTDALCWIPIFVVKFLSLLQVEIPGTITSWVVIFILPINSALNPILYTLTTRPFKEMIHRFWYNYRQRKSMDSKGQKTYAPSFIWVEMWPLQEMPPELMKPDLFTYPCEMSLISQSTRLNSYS
experiment-summary: RXFP1 Hu cAMP (Test A)
Type: cell-based
Design: expressed in transfected cells; host or cells: Jump-In T-REx CHO-K1 cells (ThermoFisher), induced with 10 ng/ml doxycycline for 24 h
details: RXFP1 Hu cAMP; read-out: Test A EC50

[
  {
    "molecule": "COc1cc(F)c(-c2ccc(C(=O)O)cc2)cc1C(=O)N[C@@H]1[C@H](C(=O)Nc2cccc(S(=O)(=O)C(F)(F)F)c2)[C@H]2C=C[C@@H]1C2 (single isomer, unassigned)",
    "units": "nM",
    "limit-sign": ">",
    "EC50": 50000
  },
  {
    "molecule": "COc1cc(F)c(-c2cnc(CCC(=O)O)cn2)cc1C(=O)N[C@@H]1[C@@H]2CC[C@@H](C2)[C@@H]1C(=O)Nc1cccc(S(=O)(=O)C(F)(F)F)c1 (racemic)",
    "units": "nM",
    "limit-sign": "=",
    "EC50": 190
  },
  {
    "molecule": "COc1cc(C#N)c(O[C@H]2CC[C@@](C)(C(=O)O)CC2)cc1C(=O)N[C@@H]1[C@H]2CC[C@H](C2)[C@@H]1C(=O)NCC1(OC)CCC1",
    "units": "nM",
    "limit-sign": "=",
    "EC50": 410
  },
  {
    "molecule": "COc1cc(F)c(O[C@H]2CC[C@@H](C(=O)O)CC2)cc1C(=O)N[C@@H]1[C@H]2CC[C@H](C2)[C@@H]1C(=O)Nc1cccc(C(C)(C)C)c1",
    "units": "nM",
    "limit-sign": "=",
    "EC50": 130
  },
  {
    "molecule": "COc1cc(F)c(O[C@H]2CC[C@@](C)(C(=O)O)CC2)cc1C(=O)N[C@@H]1[C@H]2CC[C@H](C2)[C@@H]1C(=O)NCC1CC(F)(F)C1",
    "units": "nM",
    "limit-sign": "=",
    "EC50": 690
  },
  {
    "molecule": "COc1cc(C#N)c(O[C@H]2CC[C@@](C)(C(=O)O)CC2)cc1C(=O)N[C@@H]1[C@H]2CC[C@H](C2)[C@@H]1C(=O)NCCCOC(C)C",
    "units": "nM",
    "limit-sign": "=",
    "EC50": 1300
  },
  {
    "molecule": "COc1cc(F)c(-c2ccc(OCC(=O)O)cc2)cc1C(=O)N[C@@H]1[C@H]2CC[C@H](C2)[C@@H]1C(=O)NCC(C)(C)C",
    "units": "nM",
    "limit-sign": "=",
    "EC50": 530
  },
  {
    "molecule": "COc1cc(F)c(O[C@H]2CC[C@@H](C(=O)O)CC2)cc1C(=O)N[C@H]1[C@H]2CC[C@H](C2)[C@H]1C(=O)Nc1cccc(S(F)(F)(F)(F)F)c1",
    "units": "nM",
    "limit-sign": "=",
    "EC50": 1600
  },
  {
    "molecule": "COc1cc(F)c(O[C@H]2CC[C@@H](C(=O)O)CC2)cc1C(=O)N[C@@H]1[C@H]2CC[C@H](C2)[C@@H]1C(=O)Nc1ccnc(C(F)(F)F)c1",
    "units": "nM",
    "limit-sign": "=",
    "EC50": 410
  },
  {
    "molecule": "CC1(CNC(=O)C2C3CCC(CC3)C2NC(=O)c2cc(O[C@H]3CC[C@@](C)(C(=O)O)CC3)c(C#N)cc2F)CCC1 (single isomer, unassigned)",
    "units": "nM",
    "limit-sign": "=",
    "EC50": 7.6
  },
  {
    "molecule": "COc1cc(F)c(O[C@H]2CC[C@@](C)(C(=O)O)CC2)cc1C(=O)N[C@@H]1[C@H]2CC[C@H](C2)[C@@H]1C(=O)NC12CC(C1)C2",
    "units": "nM",
    "limit-sign": "=",
    "EC50": 140
  }
]
